# Tested on: Mycobacterium tuberculosis
# experiment: Antitubercular activity against FQ resistant Mycobacterium tuberculosis H37Rv harboring gyrA Ala-90-Val/gyrB Glu-540-Val mutant measured after 7 days by resazurin microtiter assay
# Type: functional
# particulars: time 7 day
Measured MIC90, listed per entry for reference.

# molecule, units, sign qualifier, MIC90
records = [
    ("CCOC(=O)c1cn(C)c2c(cc([N+](=O)[O-])c3cccnc32)c1=O", "µM", ">", 50),
    ("CC1COc2c(N3CCN(C)CC3)c(F)cc3c(=O)c(C(=O)O)cn1c23 (configuration not stated)", "µM", "=", 27.6),
    ("CCOC(=O)c1cn(CC)c2c(cc([N+](=O)[O-])c3cccnc32)c1=O", "µM", ">", 50),
    ("Cn1cc(C(=O)O)c(=O)c2cc([N+](=O)[O-])c3cccnc3c21", "µM", "=", 5.28),
    ("COc1c(N2C[C@@H]3CCCN[C@@H]3C2)c(F)cc2c(=O)c(C(=O)O)cn(C3CC3)c12", "µM", "=", 6.16),
    ("CCn1cc(C(=O)O)c(=O)c2cc([N+](=O)[O-])c3cccnc3c21", "µM", "=", 11.68),
    ("CCn1cc(C(=O)O)c(=O)c2ccc(C)nc21", "µM", ">", 50),
]

###

Measured MIC90, listed per entry for reference.
# Tested on: Mycobacterium tuberculosis
# experiment: Antitubercular activity against FQ resistant Mycobacterium tuberculosis H37Rv harboring gyrA Gly-88-Cys mutant measured after 7 days by resazurin microtiter assay
# Format: functional
# particulars: time 7 day
observed property: MIC90 (µM)

# compound, sign qualifier, readout value
rows = [
    ("CC1COc2c(N3CCN(C)CC3)c(F)cc3c(=O)c(C(=O)O)cn1c23 (configuration not stated)", "=", 27.6),
    ("COc1c(N2C[C@@H]3CCCN[C@@H]3C2)c(F)cc2c(=O)c(C(=O)O)cn(C3CC3)c12", "=", 6.16),
    ("CCn1cc(C(=O)O)c(=O)c2ccc(C)nc21", ">", 50),
    ("CCOC(=O)c1cn(CC)c2c(cc([N+](=O)[O-])c3cccnc32)c1=O", ">", 50),
    ("CCOC(=O)c1cn(C)c2c(cc([N+](=O)[O-])c3cccnc32)c1=O", ">", 50),
    ("Cn1cc(C(=O)O)c(=O)c2cc([N+](=O)[O-])c3cccnc3c21", "=", 2.64),
    ("CCn1cc(C(=O)O)c(=O)c2cc([N+](=O)[O-])c3cccnc3c21", "=", 11.68),
]

###

# Test system: Mycobacterium tuberculosis
# experiment: Antitubercular activity against FQ resistant Mycobacterium tuberculosis H37Rv harboring gyrA Asp-94-Gly/gyrB Asp-500-Asn mutant measured after 7 days by resazurin microtiter assay
# Type: functional
# particulars: time 7 day

# compound, system tested, sign qualifier, MIC90, µM
rows = [
    ("CCOC(=O)c1cn(C)c2c(cc([N+](=O)[O-])c3cccnc32)c1=O", "Mycobacterium tuberculosis", ">", 50),
    ("CCOC(=O)c1cn(CC)c2c(cc([N+](=O)[O-])c3cccnc32)c1=O", "Mycobacterium tuberculosis", ">", 50),
    ("CCn1cc(C(=O)O)c(=O)c2cc([N+](=O)[O-])c3cccnc3c21", "Mycobacterium tuberculosis", "=", 5.84),
    ("COc1c(N2C[C@@H]3CCCN[C@@H]3C2)c(F)cc2c(=O)c(C(=O)O)cn(C3CC3)c12", "Mycobacterium tuberculosis", "=", 6.16),
    ("CC1COc2c(N3CCN(C)CC3)c(F)cc3c(=O)c(C(=O)O)cn1c23 (configuration not stated)", "Mycobacterium tuberculosis", "=", 27.6),
    ("Cn1cc(C(=O)O)c(=O)c2cc([N+](=O)[O-])c3cccnc3c21", "Mycobacterium tuberculosis", "=", 5.28),
    ("CCn1cc(C(=O)O)c(=O)c2ccc(C)nc21", "Mycobacterium tuberculosis", ">", 50),
]

FYI, the data here is from ChEMBL document CHEMBL4765453.
